# Assay explanation: Solubilized concentration of compound in eye drop formulation (HPLC)
# Format: physicochemical
# Test parameters: eye drop formulation: 20% hydroxypropyl β-cyclodextrin, 0.5% HPMC, 1.6 mM EDTA in PBS
Quantity kind: Concentration of compound in formulation

[
  {
    "Compound": "CCC(O)(CCc1ccc(Oc2nc3c(SC)cccc3s2)cc1)C(F)(F)F (stereo not shown) [Compound 195]",
    "Concentration of compound in formulation": "3640 µg/mL"
  }
]

So what's the measured Concentration of compound in formulation for this one? CCC(O)(CCc1ccc(Oc2nc3c(SC)cccc3s2)c(OC)c1)C(F)(F)F (stereo not shown) [Compound 104]
2860 µg/mL

So what's the measured Concentration of compound in formulation for this one? CCC(O)CCc1ccc(Oc2nc3c(SC)cccc3s2)c(OC)c1 (stereo not shown) [Compound 193]
2530 µg/mL

So what's the measured Concentration of compound in formulation for this one? CCC(C)(O)CCc1ccc(Oc2nc3c(SC)cccc3s2)c(OC)c1 (stereo not shown) [Compound 191]
1650 µg/mL

###

Recorded IC50 for the following molecules
# System: LTB4 production in porcine or human whole blood
# Assay explanation: Whole blood HPLC assay, inhibition of LTB4 production
# Assay type: cell-based
# Test parameters: 5 point curve, porcine or human whole blood (not specified)

# example entries with known answers
[
  {
    "Molecule": "CC(CCc1ccc(Oc2nc3ccccc3s2)cc1)N1CCCC1 (stereo not shown)",
    "Target entity": "LTB4 production in porcine or human whole blood",
    "Recorded result": "100 to 1000 nM"
  },
  {
    "Molecule": "CCC(CCc1ccc(Oc2nc3ccccc3s2)cc1)N1CCCC1 (stereo not shown)",
    "Target entity": "LTB4 production in porcine or human whole blood",
    "Recorded result": "100 to 1000 nM"
  },
  {
    "Molecule": "OC(c1ccc(Oc2nc3ccccc3s2)cc1)C(F)(F)F (stereo not shown)",
    "Target entity": "LTB4 production in porcine or human whole blood",
    "Recorded result": "100 to 1000 nM"
  },
  {
    "Molecule": "COc1cc(CCC(C)(O)C(F)(F)F)ccc1Oc1nc2c(SC)cccc2s1 (stereo not shown)",
    "Target entity": "LTB4 production in porcine or human whole blood",
    "Recorded result": "1000 to 10000 nM"
  },
  {
    "Molecule": "CCC(O)(CCc1ccc(Oc2nc3ccc(F)cc3s2)c(OC)c1)C(F)(F)F (stereo not shown)",
    "Target entity": "LTB4 production in porcine or human whole blood",
    "Recorded result": "1000 to 10000 nM"
  }
]

So what's the measured IC50 for this one? CCC(O)(CCc1ccc(Oc2nc3ccccc3s2)cc1)C(F)(F)F (stereo not shown)
1000 to 10000 nM

So what's the measured IC50 for this one? OC(c1ccc(Oc2nc3ccccc3s2)c(Cl)c1)C(F)(F)F (stereo not shown)
> 10000 nM

So what's the measured IC50 for this one? CCC(O)(CCc1ccc(Oc2nc3ccccc3s2)c(OCC2CC2)c1)C(F)(F)F (stereo not shown)
> 10000 nM

###

# Tested on: LTB4 production in porcine or human whole blood
# Assay explanation: Whole blood HPLC assay, inhibition of LTB4 production
# Type: cell-based
# Test parameters: 5 point curve, porcine or human whole blood (not specified)
# Description: Porcine or human whole blood (1 mL) was pre-incubated with a series of concentrations of compound solubilized in DMSO for 30 minutes. […] The leukotrienes were analyzed by HPLC using an ACE C18 column (4.5 mm×150 mm, 5 m) eluted with acetonitrile/methanol/water mixture with H3PO4, pH 3.5 (37:26:37) with a flow rate of 1.8 mL/min. […] The results provided in Table 3 are IC50 values calculated based on a 5 point curve, where Compound No. refers to the compounds identified in Table 1.
pIC50: −log10 of the molar value.
Recorded pIC50 for the following compounds

[
  {
    "Compound": "c1ccc2sc(Oc3ccc(CN4CCCC4)cc3)nc2c1 [Compound 164]",
    "pIC50": "6.00 to 7.00"
  },
  {
    "Compound": "CC(CCc1ccc(Oc2nc3ccccc3s2)cc1)N1CCCC1C(=O)O (centres unmarked) [Compound 157]",
    "pIC50": "5.00 to 6.00"
  },
  {
    "Compound": "CC(O)(CCc1ccc(OCc2ccc3ccccc3n2)cc1)C(F)(F)F (centres unmarked) [Compound 183]",
    "pIC50": "6.00 to 7.00"
  }
]

So what's the measured pIC50 for this one? CCC(O)(CCc1ccc(OCc2ccc3ccccc3n2)c(OC)c1)C(F)(F)F (centres unmarked) [Compound 198]
6.00 to 7.00

So what's the measured pIC50 for this one? CCC(O)(CCc1ccc(OCc2ccc3ccccc3n2)cc1)C(F)(F)F (centres unmarked) [Compound 185]
6.00 to 7.00
